- System: cysteine-containing SecR(G264A,I268A) constructs
- ASSAY_DETAILS: Cysteine trapping with SecR(G264A,I268A) cysteine constructs, intact COS-1 cells
- Type: binding, human
- SETUP_CONDITIONS: G284C, ECL2; mean ± S.E.M., n = 3-5
No end group written: not given here.
REPORTED_ENDPOINT: Overall labeling

Study these solved cases before continuing.
SUBSTANCE	ASSAY_TARGET	REPORTED_ENDPOINT	ASSAY_RESULT
Cys^7-[Tyr^10]secretin(1-27) (HSDGTFCSEYSRLREGARLQRLLQGLV; not fully specified; ends and bridges not checked; also: radioiodinated; UniProt P09683 28-54, looked up, variant T7C L10Y) [Cys^7-Sec, cysteine-containing secretin agonist probe, radioiodinated for cysteine trapping]	cysteine-containing SecR(G264A,I268A) constructs	Overall labeling	< 1 percentage
Cys^6-[Tyr^10]secretin(1-27) (HSDGTCTSEYSRLREGARLQRLLQGLV; not fully specified; ends and bridges not checked; also: radioiodinated; UniProt P09683 28-54, looked up, variant F6C L10Y) [Cys^6-Sec, cysteine-containing secretin agonist probe, radioiodinated for cysteine trapping]	cysteine-containing SecR(G264A,I268A) constructs	Overall labeling	< 1 percentage

Problem: Need Overall labeling of Cys^2-[Tyr^10]secretin(1-27) (HCDGTFTSEYSRLREGARLQRLLQGLV; not fully specified; ends and bridges not checked; also: radioiodinated; UniProt P09683 28-54, looked up, variant S2C L10Y) [Cys^2-Sec, cysteine-containing secretin agonist probe, radioiodinated for cysteine trapping] , thanks.
Result: < 1 percentage

Where these numbers come from: paper PMC11116414
